Recorded values, source patent US11053256B2.

target: human TLR8 (Homo sapiens); construct: expressed in transfected cells; host or cells: HEK293; assay: Human TLR8 cellular reporter assay (HEK293, NFkB-luc); format: cell-based; settings: HEK293 cells transiently transfected with TLR8 and NFkB-luc; 6 hours incubation; lowest effective concentration
Sequence (Q9NR97 27-1041): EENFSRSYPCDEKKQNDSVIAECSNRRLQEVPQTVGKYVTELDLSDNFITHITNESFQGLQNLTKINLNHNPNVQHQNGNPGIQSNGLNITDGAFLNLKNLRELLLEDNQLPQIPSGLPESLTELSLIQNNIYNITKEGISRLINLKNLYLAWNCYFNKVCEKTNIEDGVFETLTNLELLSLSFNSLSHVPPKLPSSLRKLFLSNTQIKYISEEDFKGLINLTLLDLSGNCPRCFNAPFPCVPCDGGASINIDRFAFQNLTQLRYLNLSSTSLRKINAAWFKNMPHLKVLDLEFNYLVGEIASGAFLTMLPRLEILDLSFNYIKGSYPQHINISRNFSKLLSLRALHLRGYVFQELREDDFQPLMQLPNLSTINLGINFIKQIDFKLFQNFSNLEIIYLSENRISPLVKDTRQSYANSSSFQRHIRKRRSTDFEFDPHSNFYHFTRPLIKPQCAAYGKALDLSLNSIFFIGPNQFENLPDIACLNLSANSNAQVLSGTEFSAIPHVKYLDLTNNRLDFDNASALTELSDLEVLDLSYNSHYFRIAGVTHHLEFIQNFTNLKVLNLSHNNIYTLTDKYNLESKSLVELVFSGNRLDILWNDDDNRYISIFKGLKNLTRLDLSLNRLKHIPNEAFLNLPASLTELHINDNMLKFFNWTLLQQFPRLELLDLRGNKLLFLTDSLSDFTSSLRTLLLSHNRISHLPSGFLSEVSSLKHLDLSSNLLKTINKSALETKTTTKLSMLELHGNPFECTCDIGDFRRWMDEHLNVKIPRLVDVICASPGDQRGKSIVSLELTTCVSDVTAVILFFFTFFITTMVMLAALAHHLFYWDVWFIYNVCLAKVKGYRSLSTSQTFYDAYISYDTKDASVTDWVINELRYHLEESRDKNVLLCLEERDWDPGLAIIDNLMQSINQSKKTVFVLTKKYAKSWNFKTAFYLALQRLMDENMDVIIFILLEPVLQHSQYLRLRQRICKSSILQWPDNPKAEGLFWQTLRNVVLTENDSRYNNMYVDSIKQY
measured-endpoint: Human TLR 8 (LEC) (µM)

molecule="CCCC[C@H](CO)Nc1nc(N)nc2c1OCCC2 [Compound 14]" numeric_readout=0.1
molecule="CCCCNc1nc(N)nc2c1COCC2 [Compound 3]" numeric_readout=1.0
molecule="CCCC[C@H](CO)Nc1nc(N)nc2c1CCOC2 [Compound 8]" numeric_readout=1.4

[I] CCCC[C@H](CO)Nc1nc(N)nc2c1COCC2 [Compound 4]
[II] CCCCNc1nc(N)nc2c1OCCC2 [Compound 13]
[III] CCCCNc1nc(N)nc2c1CCOC2 [Compound 7]
Hey, quick one: sort these by Human TLR 8 (LEC), low to high? Thanks in advance for listing the labels in the requested order.
II, III, I
